Recorded kcat values for a group of molecules are listed next.
Test system: Geobacillus stearothermophilus
Details: DSM 2334
Description: Substrate activity at Geobacillus stearothermophilus DSM 2334 ADH expressed in Escherichia coli BL21 (DE3) assessed as Kcat in 50 mM HEPES buffer at pH 7.5 at 23 degC by MTT dye based Lineweaver-Burk plot analysis
Just the number in s⁻¹, nothing appended.

Give recorded kcat. `CCO`
0.019

Give recorded kcat. `CO`
0.013

Give recorded kcat. `CCCO`
0.019

Continuing:
Give recorded kcat. `CCCCO`
0.004

Give recorded kcat. `CC(C)(C)O`
0.026

Give recorded kcat. CCC(C)O (stereo not drawn)
0.094

Give recorded kcat. `OCCCO`
0.041

Give recorded kcat. `CC(C)O`
0.076

* * *

System: Geobacillus stearothermophilus
Conditions: DSM 2334
Description: Substrate activity at Geobacillus stearothermophilus DSM 2334 ADH expressed in Escherichia coli BL21 (DE3) assessed as Kcat/Km ratio in 50 mM HEPES buffer at pH 7.5 at 23 degC by MTT dye based Lineweaver-Burk plot analysis
Could you label it condition met if measured kcat/Km is 2 M⁻¹ s⁻¹ or higher, and condition not met otherwise?

Determine whether this molecule has kcat/Km no lower than 2 M⁻¹ s⁻¹: `CC(C)O`
condition met

Determine whether this molecule has kcat/Km no lower than 2 M⁻¹ s⁻¹: `CCCO`
condition not met

Continuing:
Determine whether this molecule has kcat/Km no lower than 2 M⁻¹ s⁻¹: `CCCCO`
condition not met

Determine whether this molecule has kcat/Km no lower than 2 M⁻¹ s⁻¹: `CCO`
condition met

Determine whether this molecule has kcat/Km no lower than 2 M⁻¹ s⁻¹: `CO`
condition not met

Determine whether this molecule has kcat/Km no lower than 2 M⁻¹ s⁻¹: CCC(C)O (stereo not drawn)
condition met

Determine whether this molecule has kcat/Km no lower than 2 M⁻¹ s⁻¹: `CC(C)(C)O`
condition not met

Determine whether this molecule has kcat/Km no lower than 2 M⁻¹ s⁻¹: `OCCCO`
condition not met

* * *

System: Geobacillus stearothermophilus
Conditions: DSM 2334
Description: Substrate activity at Geobacillus stearothermophilus DSM 2334 ADH expressed in Escherichia coli BL21 (DE3) assessed as Km in 50 mM HEPES buffer at pH 7.5 at 23 degC by MTT dye based Lineweaver-Burk plot analysis
parameter: Km (mM)
Just the number in mM, nothing appended.

Give recorded Km. `CCO`
2.95

Give recorded Km. `OCCCO`
23.6

Give recorded Km. CCC(C)O (stereo unspecified)
23.8

Continuing:
Give recorded Km. `CCCO`
39.8

Give recorded Km. `CC(C)O`
1.26

Give recorded Km. `CCCCO`
2.45

// provenance: ChEMBL document CHEMBL4392860
